Test system: OVCAR-8 ovarian
experiment: NCI tumour cell line growth inhibition, 48 h
measure: GI50

The cases that follow already have their GI50 on record.
stdin: Name the reported GI50 value associated with the compound O=c1cc(-c2ccccc2)oc2cc(OCc3cn(Cc4ccc(F)cc4)nn3)cc(O)c12
stdout: 3.76 µM

stdin: Now try CC(=O)[CH-]C(=O)c1ccccc1.CC(=O)[CH-]C(=O)c1ccccc1.CC(C)CCCC(C)[C@H]1CCC2[C@@H]3CCC4C[C@@H]([O-])CC[C@]4(C)C3CC[C@@]21C.CC(C)CCCC(C)[C@H]1CCC2[C@@H]3CCC4C[C@@H]([O-])CC[C@]4(C)C3CC[C@@]21C.Cl.[Ti+4] (stereo partly drawn) .
stdout: > 25 µM

Continuing:
stdin: Need GI50 of CC(=O)OC1C(O)COC(Oc2c(C)c3c4c(c2O)[C@@H](C)CC[C@@H]4[C@@H](C)C[C@H]3C=C(C)C)C1O (stereo partly drawn) , thanks.
stdout: 23 µM

* * *

Tested on: LOX IMVI melanoma
experiment: NCI tumour cell line growth inhibition, 48 h
measure: GI50

Examples with their reported GI50 follow.
stdin: Name the reported GI50 value associated with the compound CO/N=C(\COc1ccc2c(=O)cc(-c3ccccc3)oc2c1)c1ccc(OC)cc1
stdout: > 100 µM

stdin: Input COc1cc2c3c(n(CCCn4cccn4)c(=O)c2cc1OC)-c1cc2c(cc1C3=O)OCO2
stdout: 0.728 µM

stdin: Can you handle CCCCn1c(=O)c(/C=C/C(=O)/C=C/c2ccc(O)c(OC)c2)cc2ccc(Cl)cc21 next?
stdout: 1.51 µM

Continue with the compound presented below.
stdin: May I ask what GI50 has been recorded for CCOc1ccc2c(-c3ccnc(Nc4cccc(C(F)(F)F)c4)n3)cnn2n1 ?
stdout: 12.3 µM

* * *

System: K-562 leukemia
experiment: NCI tumour cell line growth inhibition, 48 h; in the data active means GI50 below about 0.43 µM; inactive means the rest
Can you answer with just one of these options? True for active, False for inactive

The examples below pair each entry with its known result.
stdin: Short answer needed: outcome of this test for CCC(=O)[O-].CCC(=O)[O-].N.N.N.N.[Co+3].[O-][Cl+3]([O-])([O-])[O-] ?
stdout: False

stdin: Next molecule: c1ccc(CN2CCC3(CC2)ONC2=NCCN23)cc1
stdout: False

stdin: C=C(C)[C@@H]1CC[C@]2(C)[C@H](CC=C3[C@@H]4CC(C)(C)CC[C@]4(C(=O)OC)CC[C@]32C)[C@@]1(C)CC/C(N)=N/O ?
stdout: False

stdin: Here is the next molecule: CCOc1ccccc1N=C(NC(=O)CC)SC
stdout: False

stdin: Repeat for the following molecule: CCc1nc2cc(/C=C/C(=O)NO)c(F)cc2c(=O)n1CCc1ccccc1
stdout: False

stdin: Ok, now CC(=O)O[C@H]1CC[C@]2(C)[C@H]3C(=O)C=C4[C@@H]5C[C@](C)(C(=O)N6CCCNCC6)CC[C@]5(C)CC[C@@]4(C)[C@]3(C)CC[C@H]2C1(C)C
stdout: False

stdin: Next molecule up: O=C(Oc1ccccc1Cl)c1cccnc1Nc1ccnc(C(F)(F)F)c1
stdout: False

stdin: Then CNC1=C(Br)C(=O)C2=C(C1=O)C1C3=C(C(=O)C=CC3=O)C2c2ccccc21 (centres undefined) ?
stdout: False

stdin: Quick one: CC(=O)[CH-]C(=O)c1ccccc1.CC(=O)[CH-]C(=O)c1ccccc1.CC(C)CCCC(C)[C@H]1CCC2[C@@H]3CCC4C[C@@H]([O-])CC[C@]4(C)C3CC[C@@]21C.CC(C)CCCC(C)[C@H]1CCC2[C@@H]3CCC4C[C@@H]([O-])CC[C@]4(C)C3CC[C@@]21C.Cl.[Ti+4] (some centres undefined)
stdout: False

stdin: Then what about the molecule COc1cc2c(cc1O)CCN[C@@]21CS[C@H]2c3c(OC(C)=O)c(C)c4c(c3C(COC1=O)N1C2C2c3c(cc(C)c(OC)c3O)CC([C@@H]1O)N2C)OCO4 (some centres undefined) ?
stdout: True

Consider the record given below.
stdin: Please indicate how the test categorized CC(C)(C)OC(=O)N(CCCn1c2c(c3ccccc3c1=O)C(=O)c1ccccc1-2)CCN(CCCn1c2c(c3ccccc3c1=O)C(=O)c1ccccc1-2)C(=O)OC(C)(C)C .
stdout: False

* * *

Listing of entries alongside the reported TGI.
System: HCC-2998 colon
experiment: NCI tumour cell line growth inhibition, 48 h

stdin: // TGI lookup, key: Nc1nc(Cl)cc(NCCCCO)n1
stdout: > 100 µM

stdin: Entry S=C1SC2(CCCCCC2)NC2=C1CCCCC2 please
stdout: > 100 µM

stdin: Entry CCOP(=O)(C/C(=N/NC(C)(C)C)C(=O)Nc1nc2ccc(C)cc2s1)OCC please
stdout: > 100 µM

stdin: Similarly, C/C(CC(=O)Nc1ccc(C)cc1)=N\NC(N)=S ?
stdout: > 100 µM

stdin: And the next one, CN(C)CC1CCC(CN(C)C)C1=NO (stereo not given) ?
stdout: > 100 µM

New cases:
stdin: Look up TGI: CCCNCC(O)/C=C/[Si](C)(C)C (stereo not given) (tested in a mixture with another compound)
stdout: > 100 µM

stdin: CCOC(=O)c1c(N2CCOCC2)[nH]c(=O)c(C(c2ccc(N(C)C)cc2)c2c(O)c(C(=O)OCC)c(N3CCOCC3)[nH]c2=O)c1O , same question.
stdout: > 100 µM

stdin: Now consider COc1cccc(NC(=O)c2c(SC)n[nH]c2N)c1 and answer again.
stdout: > 100 µM

stdin: Queued: COc1cc2c(c(OC)c1OC)C(=O)c1c-2n(CCCN)c(=O)c2cc([N+](=O)[O-])ccc12
stdout: 0.804 µM

stdin: Next: Cc1nnc2sc(-c3ccc(N)cc3)nn12
stdout: > 100 µM

stdin: Lookup CCOc1ccc2c(-c3ccnc(Nc4cccc(C(F)(F)F)c4)n3)cnn2n1
stdout: > 25 µM

stdin: Also Cn1c2nc(=Nc3ccc(Cl)cc3)n3ccc4ccccc4c3c2c(=O)n1-c1ccccc1 ?
stdout: > 100 µM

stdin: Follow-up entry: COc1ccc2c(CCNS(=O)(=O)c3ccccc3)c(C(C)=O)[nH]c2c1[N+](=O)[O-]
stdout: > 100 µM

stdin: Now the compound CNC(=O)OC(C)CN1c2ccccc2Sc2ccccc21 (stereo not given)
stdout: > 100 µM

stdin: Can you check O=c1cc(-c2ccccc2)oc2cc(OCc3cn(Cc4ccc(F)cc4)nn3)cc(O)c12 next?
stdout: > 100 µM

* * *

Test system: RPMI-8226 leukemia
experiment: NCI tumour cell line growth inhibition, 48 h
# TGI listing for each entry below
Give the value, in units of µM, as a plain number.

Answered examples (3):
stdin: So what does the record say about TGI for CC(C)(C)c1ccc(NC(=O)c2cc(=O)c3ccccc3[nH]2)c(C(C)(C)C)c1O ?
stdout: 14.1

stdin: And COc1ccc(CNCCCN2C(=O)c3ccc4c5c(ccc(c35)C2=O)C(=O)N(CCCNCCCCNCCCN)C4=O)c(OC)c1OC ?
stdout: 12.2

stdin: Another compound: COc1cc2c(c(OC)c1OC)C(=O)c1c-2n(CCCN)c(=O)c2cc([N+](=O)[O-])ccc12
stdout: 3.32

Others:
stdin: # lookup: TGI of CCN(CC)CCNC(=O)c1ccccc1Nc1c(Cl)cccc1Cl
stdout: 30.2

stdin: Then CC(C)[C@H](COC(C)(C)C)N=CN1CSc2ccccc21 ?
stdout: 54

stdin: Would you mind doing O=C(/C=C/c1ccccc1)c1ccc(O)c(CN2CCN(c3cc4c(cc3F)c(=O)c(C(=O)O)cn4C3CC3)CC2)c1 as well?
stdout: 6.37

stdin: Cool, now COc1ccc(S(=O)(=O)N2CCCCC2)cc1NC(=O)c1[nH]c(C)c2c1CCCCC2=O
stdout: 32.4

stdin: // query: O=c1[nH]ncc2[nH]c3c(c12)CCCc1ccccc1-3
stdout: 84.9

* * *

Test system: MALME-3M melanoma
experiment: NCI tumour cell line growth inhibition, 48 h
measure: TGI

stdin: TGI lookup needed for COc1ccc(Oc2nc3cc(C(F)(F)F)ccc3nc2C(C)C)cc1 , thanks.
stdout: 72.4 µM

stdin: How about NC(CCc1nc(-c2ccccc2)cs1)C(=O)O (configuration not stated) ?
stdout: > 100 µM

stdin: Quick one: Fc1ccc(C(OCCN2CC3CC2CN3CCCc2ccccc2)c2ccc(F)cc2)cc1 (configuration not stated)
stdout: 8.27 µM

stdin: How about COc1cc2c(cc1OC)C(C1(O)CCCCC1)NCC2 (configuration not stated) ?
stdout: > 100 µM

stdin: Can you check CC1(C)[C@@H]2C[C@H]1C(Cc1ccccc1C[C@H]1c3cc(-c4ccccn4)ncc3[C@H]3C[C@@H]1C3(C)C)c1cc(-c3ccccn3)ncc12 (some centres not stated) next?
stdout: > 100 µM

***
stdin: What does the record list as TGI for CN(C)c1ccc2c(SCC(=O)OCC(=O)[C@@]3(O)CC[C@H]4[C@@H]5CCC6=CC(=O)C=C[C@]6(C)[C@H]5C(=O)C[C@@]43C)c3ccc(N(C)C)cc3nc2c1 ?
stdout: > 100 µM

stdin: Subsequent entry: CCOc1ccccc1N=C(NC(=O)CC)SC
stdout: > 100 µM

stdin: And for CO/N=C(\COc1ccc2c(=O)cc(-c3ccccc3)oc2c1)c1ccc(OC)cc1 ?
stdout: > 100 µM

stdin: // next record Cc1ccc(S(=O)(=O)NC(C)C(=O)O)cc1 (configuration not stated)
stdout: > 100 µM

stdin: Record: CC(=O)O[C@H]1CC[C@]2(C)[C@H]3C(=O)C=C4[C@@H]5C[C@](C)(C(=O)N6CCCNCC6)CC[C@]5(C)CC[C@@]4(C)[C@]3(C)CC[C@H]2C1(C)C
stdout: 3.47 µM

stdin: Same question for NC(N)=NS(=O)(=O)c1ccc(NC(=O)c2ccc(Cl)c3c(Nc4ccc(S(=O)(=O)N=C(N)N)cc4)c4ccccc4nc23)cc1 please.
stdout: > 100 µM
